tested system: T1, human CD137-Fc (human, biotin-labeled)
T1 construct: if 90 already holds the Fc, drop the second piece; also called biotin-labeled human CD137 fused to human IgG1 Fc fragment; biotin-human CD137-Fc; not shown: human IgG1 Fc fragment
protocol notes: bead ELISA on biotin-human CD137-Fc with 125 pmol/well free CD3e peptide as competitor;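 note: Streptavidin-coated magnetic beads in blocking buffer as the capture surface, well signal read as fluorescence 2 min after adding APS-5 substrate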
measure: ELISA signal

{"columns": ["binder", "result"],
 "data": [
  ["DADU01_3#001 (antibody, V domains shown, Human IgG1; light chain GLS3000 (kappa); also called dBBDu126; dBBDu_126) VH: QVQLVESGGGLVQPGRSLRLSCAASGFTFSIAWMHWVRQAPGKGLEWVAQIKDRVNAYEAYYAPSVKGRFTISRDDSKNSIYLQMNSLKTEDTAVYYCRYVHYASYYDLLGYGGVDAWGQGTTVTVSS VL: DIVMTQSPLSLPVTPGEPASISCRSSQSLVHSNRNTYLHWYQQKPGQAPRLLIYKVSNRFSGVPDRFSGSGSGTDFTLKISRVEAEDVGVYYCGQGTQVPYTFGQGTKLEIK", 2610]
]}

Could you now consider this next binder?
Item dBBDu193 (antibody, V domains shown, Human IgG1; light chain GLS3000 (kappa)) VH: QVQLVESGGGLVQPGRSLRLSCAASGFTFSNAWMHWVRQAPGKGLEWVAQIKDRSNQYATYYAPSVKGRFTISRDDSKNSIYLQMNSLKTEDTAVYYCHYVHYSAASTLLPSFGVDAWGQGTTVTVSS VL: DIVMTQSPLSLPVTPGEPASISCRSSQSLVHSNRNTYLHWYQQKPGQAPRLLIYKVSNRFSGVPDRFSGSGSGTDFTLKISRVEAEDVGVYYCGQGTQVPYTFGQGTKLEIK has what recorded ELISA signal?
2280
